Give IC50 for every item shown.
Molecular target: human A2A adenosine receptor (Homo sapiens, UniProt P29274)
Construct: expressed in transfected cells; host or cells: HEK293 or CHO cells
Sequence (P29274 whole entry): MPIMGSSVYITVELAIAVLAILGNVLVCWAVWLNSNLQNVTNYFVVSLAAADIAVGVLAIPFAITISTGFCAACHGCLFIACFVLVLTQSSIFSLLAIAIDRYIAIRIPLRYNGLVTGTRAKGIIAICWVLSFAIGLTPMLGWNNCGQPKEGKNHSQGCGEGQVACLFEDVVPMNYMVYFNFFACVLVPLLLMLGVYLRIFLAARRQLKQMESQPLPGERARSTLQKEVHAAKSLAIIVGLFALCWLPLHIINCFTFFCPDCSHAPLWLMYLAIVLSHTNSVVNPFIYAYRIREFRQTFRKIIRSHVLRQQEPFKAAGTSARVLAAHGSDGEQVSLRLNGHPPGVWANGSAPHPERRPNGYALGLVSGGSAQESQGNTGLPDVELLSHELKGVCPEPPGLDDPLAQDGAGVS
Experiment: A2A binding affinity, Method (B): scintillation proximity assay (SPA) with [3H]SCH58261
Settings: membranes of HEK293 or CHO cells expressing the human receptor
Provide only the numeric value, understood in µM.

Recorded IC50 for COc1cccc2c1nc(N)n1nc(CN[C@H](C)[C@@H](O)c3cc(C(F)(F)F)cc(C(F)(F)F)c3)nc21 on human A2A adenosine receptor (Homo sapiens, UniProt P29274) was 0.0402

Fill in: human A2A adenosine receptor (Homo sapiens, UniProt P29274) IC50 for CCNCc1nc2c3cccc(OC)c3nc(N)n2n1 = 0.046

Entry Nc1nc2c(F)cc(F)cc2c2nc(CCNCc3ccc(C(F)(F)F)cc3)nn12 ; assay system human A2A adenosine receptor (Homo sapiens, UniProt P29274); IC50 recorded at 0.11

human A2A adenosine receptor (Homo sapiens, UniProt P29274) assay, molecule COc1cccc2c1nc(N)n1nc(CNC(=O)OCc3ccccc3)nc21 , recorded IC50 = 0.0059

These measurements were taken from patent US20230322785A1.
